- Test system: T1, HLA-B08:01 (human)
- T1 construct: Stability assay: E. coli-expressed biotinylated heavy chain with 125I-labelled b2m; MS: BAP-tagged HLA in HEK293T cells; Treated as one molecule
- Assay summary: peptide-HLA stability, Example 9
Hi there, I'd appreciate the recorded Observed MHC stability for every entry that follows.
Please answer in the form of a number followed by its unit of measurement.

Note Observed MHC stability for the binder shown: "FLKAESKIMF"
0 h

Specify measured Observed MHC stability for "EPHLALQPL" .
0 h

Determine from records and report Observed MHC stability for "FLKAESKIM"
1.2 h

Return the recorded Observed MHC stability value; entry: "ESKIMFATL"
1.3 h

Check the records and state Observed MHC stability for "LHFCRSSIM"
0 h

Name the recorded Observed MHC stability of the binder listed here: "IMKPKRDGYM"
0.4 h

// fetch Observed MHC stability given entry "MFATLQRSSL"
0 h

State its Observed MHC stability: "FATLQRSSL"
0 h

Source: patent US20210275657A1
